System: Staphylococcus aureus
Assay: In vitro for antibacterial activity against Staphylococcus aureus 887
Format: functional
A collection of compounds and their measured MIC
Numbers only here, please. The scale is µg/mL.

Exercise: Requested read-out MIC, target or system Staphylococcus aureus, entry CN1CCN(c2c(F)cc3c(=O)c(C(=O)O)cn(CCF)c3c2F)CC1 [FLEROXACIN]
Solution: 2

Exercise: Requested read-out MIC, target or system Staphylococcus aureus, entry CN1CCN(c2cc3c(cc2F)n2c(=O)n(O)c(=O)cc2n3C2CC2)CC1
Solution: 4

Exercise: Requested read-out MIC, target or system Staphylococcus aureus, entry CNn1c(=O)cc2n(C3CC3)c3cc(N4CCNCC4)c(F)cc3n2c1=O
Solution: 16

The measurements presented in this section are drawn from ChEMBL document CHEMBL1126288.
